- test.description: pKa of basic centres (Table 1)
- Type: physicochemical
- reported.conditions: first base, e.g., an aliphatic primary, secondary, or tertiary amine; read-out: pKa (Base 1)
assay.endpoint: pKa

1. CNC[C@H](c1ccc2ccccc2c1)[C@H](OCc1noc(C)n1)c1ccccc1 [Compound 22] = 9.6
2. CNC[C@H](c1ccc2ccccc2c1)[C@H](OCCO)c1ccccc1 [Compound 32] = 9.6
3. CNC[C@H](c1ccc2ccccc2c1)[C@H](O)c1ccccc1F [Compound 15] = 9.7
4. CN(C)CC(C)(c1ccc2ccccc2c1)C(O)c1ccccc1 (stereo not drawn) [Compound 86] = 9.2
5. CNC[C@H](c1ccc2ccccc2c1)[C@H](OCc1nc(C(=O)OC)co1)c1ccccc1 [Compound 84] = 9.6
6. CNCC(c1ccc(Cl)c(Cl)c1)[C@H](O)c1ccccc1 (mixture of isomers) [Compound 53] = 9.4
7. CNC[C@@H](c1ccc(Cl)c(Cl)c1)[C@@H](OC)c1cccc(NS(=O)(=O)C(F)(F)F)c1 [Compound 172] = 9.4
8. NC[C@@H](Cc1ccccc1O)c1ccc2ccccc2c1 [Compound 133] = 9.4
9. CN1CCO[C@H](c2ccccc2)[C@@H](c2ccc3ccccc3c2)C1 [Compound 77] = 8.2

---

- test.description: pKa of basic centres (Table 1)
- Assay type: physicochemical
- reported.conditions: first base, e.g., an aliphatic primary, secondary, or tertiary amine; read-out: pKa (Base 1)
assay.endpoint: pKa

1) CNC[C@H](c1ccc2ccccc2c1)[C@H](O)c1ccccc1C (racemic) [Compound 56] = 9.7
2) CNC[C@H](c1ccc2ccccc2c1)[C@H](OCC(=O)N(C)C)c1ccccc1 = 9.6
3) CNC[C@H](c1ccc2ccccc2c1)[C@@H](F)c1ccccc1 = 9.4
4) CNC[C@H](c1ccc2ccccc2c1)[C@H](OCc1cc(C)on1)c1ccccc1 = 9.6

---

log10(Ki) values, listed per item
- system.name: UniProt P23975
- test.description: Human NET (norepinephrine transporter) uptake assay
- Assay type: cell-based
- reported.conditions: read-out: hNET Ki
assay.endpoint: log10(Ki) (log10 of the value in nM)

1. O[C@@H](c1ccccc1)[C@@H](CNCC(F)(F)F)c1ccc2ccccc2c1 (single isomer, unassigned) = 3.66
2. CNC[C@H](c1ccc2ccccc2c1)[C@H](OCc1cccc(=O)n1C)c1ccccc1 = 1.16
3. CNC[C@H](c1ccc2ccccc2c1)[C@H](O)c1ccc(Cl)s1 (single isomer, unassigned) = 0.71
4. CNCC(c1ccc(Br)c(Cl)c1)[C@H](O)c1ccccc1 (stereo partly shown) = 0.26
5. CNC[C@H](c1ccc2ccccc2c1)[C@H](O)c1ccccc1C (racemic) [Compound 56] = 0.67
6. CNC[C@H](c1ccc2ccccc2c1)[C@H](OC)c1ccccc1 = 0.53
7. NC[C@H](c1ccc2ccccc2c1)[C@@H](O)c1ccncc1Cl = 1.53
8. CNC[C@H](c1ccc2ccccc2c1)[C@H](OCC(=O)NC)c1ccccc1 = -0.15
9. CNC[C@H](c1ccc(Cl)c(Cl)c1)[C@@H](O)c1ccccc1 = 0.98
10. CNC[C@H](c1ccc(Cl)c(Cl)c1)[C@@H](O)c1ccccc1[N+](=O)[O-] = 0.88

---

- test.description: pKa of basic centres (Table 1)
- Type: physicochemical
- reported.conditions: first base, e.g., an aliphatic primary, secondary, or tertiary amine
pKa (Base 1) values, listed per item
assay.endpoint: pKa (Base 1)

1) CNCC(Cc1ccccc1OC)c1ccc2ccccc2c1 (stereo not drawn) = 10.1
2) CNCC(Cc1ccccc1CO)c1ccc2ccccc2c1 (stereo not drawn) = 10
3) CNC[C@@H](c1ccc(Cl)c(Cl)c1)[C@@H](O)c1ccsc1 = 9.5
4) CNCC(Cc1cccnc1)c1ccc2ccccc2c1 (stereo not drawn) = 9.9
5) CNCC(Cc1ccccc1C)c1ccc2ccccc2c1 (stereo not drawn) = 10.1
6) CNC[C@@H](c1ccc(Cl)c(Cl)c1)[C@@H](O)c1cccc(SC)c1 = 9.4
7) CNC[C@@H](c1ccc2ccccc2c1)[C@@H](O)c1cccnc1 = 9.6
8) CNCC(Cc1ccccc1O)c1ccc2ccccc2c1 (stereo not drawn) = 10
9) CNCC(CCc1ccccc1)[C@@H](O)c1ccccc1 (stereo partly drawn) = 10.1

---

Ki values, listed per item
- system.name: human norepinephrine transporter (Homo sapiens (Human))
- test.description: Human NET (norepinephrine transporter) uptake assay
- Format: cell-based
- reported.conditions: read-out: hNET Ki
assay.endpoint: Ki

1) CNC[C@H](c1ccc2ccccc2c1)[C@H](OCC(N)=O)c1ccccc1 [Compound 3] = 1.3 nM
2) CNC[C@H](c1ccc(Br)c(Cl)c1)[C@H](O)c1ccccc1 (racemic) [Compound 43] = 3.3 nM
3) CCc1ccccc1[C@@H](O)[C@H](CNC)c1ccc(Cl)c(Cl)c1 [Compound 158] = 6.3 nM
4) CNC[C@H](c1ccc(Cl)c(Cl)c1)[C@@H](O)c1cccc(NS(=O)(=O)C(F)(F)F)c1 [Compound 127] = 649 nM

---

- system.name: human norepinephrine transporter (Homo sapiens (Human), UniProt P23975)
- Sequence (P23975 whole entry): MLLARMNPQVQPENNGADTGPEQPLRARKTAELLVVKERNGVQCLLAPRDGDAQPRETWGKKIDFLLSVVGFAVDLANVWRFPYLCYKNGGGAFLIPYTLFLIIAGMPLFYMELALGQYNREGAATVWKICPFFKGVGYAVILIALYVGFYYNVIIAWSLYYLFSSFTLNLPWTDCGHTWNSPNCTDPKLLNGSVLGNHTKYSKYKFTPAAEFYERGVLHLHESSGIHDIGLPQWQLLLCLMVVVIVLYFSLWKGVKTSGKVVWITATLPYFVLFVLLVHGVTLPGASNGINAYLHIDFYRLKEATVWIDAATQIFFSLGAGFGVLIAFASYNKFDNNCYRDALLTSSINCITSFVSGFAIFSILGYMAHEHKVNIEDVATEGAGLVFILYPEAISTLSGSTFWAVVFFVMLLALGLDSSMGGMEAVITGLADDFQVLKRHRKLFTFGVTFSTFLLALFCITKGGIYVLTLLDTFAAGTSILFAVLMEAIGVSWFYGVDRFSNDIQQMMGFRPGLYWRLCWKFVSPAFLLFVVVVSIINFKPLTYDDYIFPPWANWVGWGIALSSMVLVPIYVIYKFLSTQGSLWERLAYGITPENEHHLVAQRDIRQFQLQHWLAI
- test.description: Human NET (norepinephrine transporter) uptake assay
- Format: cell-based
- reported.conditions: read-out: hNET Ki
pKi: −log10 of the molar value.
pKi values, listed per item
assay.endpoint: pKi

1) CN1CCO[C@@H](c2ccccc2)[C@@H](c2ccc3ccccc3c2)C1 = 6.54
2) CNC[C@H](c1ccc2ccccc2c1)[C@H](OCCO)c1ccccc1 = 8.57
3) CNC[C@@H](Cc1ccccc1)c1ccc2ccccc2c1 = 8.85
4) CNC[C@@H](c1ccc2ccccc2c1)[C@@H](O)c1cncc(OC)c1 = 6.56
5) CNC[C@H](c1ccc(Cl)c(Cl)c1)[C@H](O)c1cccc(N)c1 = 8.66
6) CNC[C@@H](c1ccc(Br)c(Cl)c1)[C@@H](O)c1ccccc1 = 6.85
7) CN1CCO[C@H](c2ccccc2)[C@@H](c2ccc3ccccc3c2)C1 = 7.91
8) CCNC(=O)CO[C@H](c1ccccc1)[C@H](CNC)c1ccc2ccccc2c1 = 8.85
9) CNC[C@H](c1ccc2ccccc2c1)[C@H](O)c1cncc(OC)c1 = 7.55

---

- system.name: UniProt Q01959
- test.description: Human DAT (dopamine transporter) uptake assay
- Format: cell-based
- reported.conditions: read-out: hDAT Ki
pKi: −log10 of the molar value.
pKi values, listed per item
assay.endpoint: pKi

1) CNC[C@H](c1ccc2ccccc2c1)[C@H](OCC(=O)NC1CCC1)c1ccccc1 = 7.97
2) CNCC(Cc1cccnc1)c1ccc(Cl)c(Cl)c1 (racemic) = 7.28
3) CNCC(Cc1cccs1)c1ccc2ccccc2c1 (racemic) = 6.94
4) CN(C)C[C@H](c1ccc2ccccc2c1)[C@H](N)c1ccccc1 = 8.01
5) CNCC(c1ccc(Cl)c(Cl)c1)[C@H](O)c1ccccc1 (mixture of isomers) = 8.01

---

- system.name: human dopamine transporter (Homo sapiens (Human), UniProt Q01959)
- Sequence (Q01959 whole entry): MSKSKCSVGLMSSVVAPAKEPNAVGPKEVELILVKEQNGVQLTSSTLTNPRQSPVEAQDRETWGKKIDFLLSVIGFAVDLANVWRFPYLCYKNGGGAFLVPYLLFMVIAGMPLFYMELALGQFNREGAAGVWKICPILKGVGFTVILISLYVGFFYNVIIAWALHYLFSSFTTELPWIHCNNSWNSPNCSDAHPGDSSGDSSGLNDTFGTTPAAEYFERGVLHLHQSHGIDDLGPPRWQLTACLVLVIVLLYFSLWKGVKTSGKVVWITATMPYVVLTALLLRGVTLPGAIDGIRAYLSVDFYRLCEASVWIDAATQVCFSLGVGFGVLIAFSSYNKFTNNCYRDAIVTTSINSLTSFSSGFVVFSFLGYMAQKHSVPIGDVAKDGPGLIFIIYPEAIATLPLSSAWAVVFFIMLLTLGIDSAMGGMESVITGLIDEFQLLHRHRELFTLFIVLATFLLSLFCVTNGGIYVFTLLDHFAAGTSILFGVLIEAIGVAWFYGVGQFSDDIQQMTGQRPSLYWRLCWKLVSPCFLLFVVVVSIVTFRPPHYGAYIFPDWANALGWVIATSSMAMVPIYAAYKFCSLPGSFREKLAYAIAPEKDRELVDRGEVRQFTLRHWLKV
- test.description: Human DAT (dopamine transporter) uptake assay
- Assay type: cell-based
- reported.conditions: read-out: hDAT Ki
Consider the reported Ki of an entry and match it to a band in b0 (below 30 nM), b1 (30 nM to below 100 nM), b2 (100 nM or more)

1. CNC[C@H](c1ccc(Cl)c(Cl)c1)[C@H](O)c1cncc(OC)c1 = b2
2. CNC[C@H](c1ccc2ccccc2c1)[C@H](OCC(=O)N(C)OC)c1ccccc1 = b0
3. CNC[C@H](c1ccc(Cl)c(Cl)c1)[C@@H](O)c1ccccc1SC = b0
4. CNC[C@H](c1ccc2ccccc2c1)[C@H](O)c1ccncc1 = b1
5. CNC[C@@H](c1ccc2ccccc2c1)[C@H](O)c1ccccc1F = b2
6. CNC[C@H](c1ccc(OC)c(C)c1)[C@H](O)c1ccccc1 (racemic) = b2
7. CNC[C@H](c1ccc2ccccc2c1)[C@H](OCc1cc(C)on1)c1ccccc1 = b1
8. CNC[C@H](c1ccc2ccccc2c1)[C@H](OCc1cc(C)no1)c1ccccc1 = b1
9. CNC[C@H](c1ccc(Cl)cc1)[C@H](O)c1ccccc1 (racemic) = b2

---

- system.name: human norepinephrine transporter (Homo sapiens (Human), UniProt P23975)
- test.description: Human NET (norepinephrine transporter) uptake assay
- Assay type: cell-based
- reported.conditions: read-out: hNET Ki
pKi: −log10 of the molar value.
assay.endpoint: pKi

1. CNC[C@H](c1ccc(Cl)c(Cl)c1)[C@H](O)c1cccc(Br)c1 = 7.92
2. CNCC(c1ccc2ccccc2c1)[C@@H](O)c1ccc(Cl)nc1 (stereo partly drawn) = 6.67
3. CNC[C@H](c1ccc(Br)c(Cl)c1)[C@@H](O)c1ccccc1 = 8.70
4. CNCC(Cc1ccccc1CO)c1ccc2ccccc2c1 (stereo not drawn) [Compound 2] = 9.00
5. CNC[C@H](c1ccc2ccccc2c1)[C@H](O)c1ccccc1C [Compound 28] = 8.62
6. CNCC(CCc1ccccc1)[C@@H](O)c1ccccc1 (stereo partly drawn) [Compound 147] = 7.34
7. C[C@](CN)(Cc1cccnc1)c1ccc2ccccc2c1 = 8.49
8. CNC[C@H](c1ccc2ccccc2c1)[C@H](O)c1cccnc1 (racemic) = 8.19
9. CNC[C@H](c1ccc(Cl)c(Cl)c1)[C@H](O)c1ccccc1OC = 8.04
10. CNC[C@H](c1ccc(Cl)cc1)[C@H](O)c1ccccc1 (racemic) = 8.07
11. NC[C@@H](c1ccc2ccccc2c1)[C@@H](O)c1ccc(Cl)nc1 = 6.30
12. CNC[C@H](c1ccc2ccccc2c1)[C@H](OCC(=O)Nc1ccccc1)c1ccccc1 = 8.48
13. CNC[C@@H](c1ccc2ccccc2c1)[C@H](O)c1ccccc1F = 7.43
14. CNC[C@@H](c1ccc2ccccc2c1)[C@@H](O)c1cccnc1 [Compound 103] = 7.24
15. CNC[C@H](c1ccc(OC)c(C)c1)[C@H](O)c1ccccc1 (racemic) = 8.35
16. CNC[C@@H](c1ccc(Cl)c(Cl)c1)[C@@H](O)c1cccc(N)c1 = 6.59
17. CNCC(Cc1ccccc1OC)c1ccc2ccccc2c1 (stereo not drawn) [Compound 57] = 8.30
18. CNC[C@@H](c1ccc(Cl)c(Cl)c1)[C@@H](O)c1cccc(Br)c1 = 6.97
19. CNC[C@H](c1ccc(Cl)c(Cl)c1)[C@@H](O)c1cccc(Br)c1 = 7.41
20. CCOC(=O)CO[C@H](c1ccccc1)[C@H](CNC)c1ccc2ccccc2c1 = 8.55
21. CNC[C@@H](c1ccc(Cl)c(Cl)c1)[C@@H](O)c1cccc(N(C)C)c1 (single isomer, unassigned) = 7.05
22. CNC[C@H](c1ccc(Cl)c(Cl)c1)[C@@H](O)c1cccc(SC)c1 = 7.10
23. CNC[C@H](c1ccc2ccccc2c1)[C@@H](O)c1cc(F)cc(F)c1 = 7.49
24. CN1CCO[C@@H](c2ccccc2)[C@H](c2ccc3ccccc3c2)C1 = 6.47
25. CNC[C@H](c1ccc(Cl)c(Cl)c1)[C@H](O)c1ccccc1 = 8.82
26. CNCC(CCc1ccccc1)[C@@H](O)c1ccccc1 (stereo partly drawn) [Compound 27] = 8.64
27. CNC[C@H](c1ccc2ccccc2c1)[C@H](OCC(=O)NCC(F)(F)F)c1ccccc1 = 8.08
28. CNC[C@@H](c1ccc(Cl)c(Cl)c1)[C@@H](O)c1cccc([S+](C)[O-])c1 (single isomer, unassigned) = 6.71
29. CNC[C@H](Cc1ccccc1O)c1ccc2ccccc2c1 = 7.59
30. CNC[C@@H](c1ccc(Cl)c(Cl)c1)[C@@H](O)c1cccc(N2CCOCC2)c1 = 6.43
31. CNC[C@H](c1ccc(Cl)c(Cl)c1)[C@H](O)c1cncc(OC)c1 = 7.03
32. CNC[C@H](c1ccc2ccccc2c1)[C@H](OCC(=O)N1CC[C@H](O)C1)c1ccccc1 = 8.72
33. CNC[C@@H](c1ccc2ccccc2c1)[C@H](O)c1ccccn1 [Compound 99] = 7.39
34. NCC[C@@H](Cc1cccnc1)c1ccc(Cl)c(Cl)c1 = 6.83
35. CNC[C@H](c1ccc2ccccc2c1)[C@H](OCc1cc(C)on1)c1ccccc1 = 8.74
36. CNC[C@H](c1ccc2ccccc2c1)[C@H](O)c1ccccc1F = 8.77

The origin of these recorded values is patent US9944618B2.
